Below: a set of entries, each annotated with reported pIC50.
Molecular target: Melanin-concentrating hormone receptor 1 (Homo sapiens)
Sequence (Q99705 whole entry): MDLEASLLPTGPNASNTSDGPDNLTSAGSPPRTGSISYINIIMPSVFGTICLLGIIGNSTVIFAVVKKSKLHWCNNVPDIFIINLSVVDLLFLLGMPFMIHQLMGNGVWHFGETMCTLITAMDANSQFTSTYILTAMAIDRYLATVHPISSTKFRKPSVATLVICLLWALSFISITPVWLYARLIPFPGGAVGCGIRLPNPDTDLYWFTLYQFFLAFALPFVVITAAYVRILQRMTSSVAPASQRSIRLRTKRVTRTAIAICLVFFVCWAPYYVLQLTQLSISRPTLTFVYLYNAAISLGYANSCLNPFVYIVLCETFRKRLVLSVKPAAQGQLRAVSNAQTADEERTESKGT
Assay: Binding affinity to human MCHr1 from neuronal IMR32 cells
Assay type: cell-based, IMR-32
Quick note: pIC50 values are minus log10 of concentrations in mol/L.

q: Which pIC50 value belongs to `Clc1ccc2c(c1)c(NC1CCN(Cc3ccc4ccccc4c3)CC1)nn2Cc1ccccn1` ?
a: 7.70

More entries:
q: Which pIC50 value belongs to `COc1ccc2[nH]nc(NC3CCN(Cc4ccc5c[nH]nc5c4)CC3)c2c1` ?
a: 7.30

q: Which pIC50 value belongs to `O=C(C1CC1)n1nc(NC2CCN(Cc3ccc4c(c3)OCO4)CC2)c2cc(Cl)ccc21` ?
a: 7.40

Attribution: ChEMBL document CHEMBL1141935
